experiment: Restrictive medium S. cerevisiae growth inhibition, OD615, pilot screen of yeast lifespan reduction project, restrictive growth control (AID 706); conditions: OD615, 48 h, at 10 µM, hits give high values;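 note: modified DeaD lifespan yeast strain shifted to restrictive glucose medium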
observation-type: growth inhibition (%)

compound: Cc1nc2sc(C(c3ccccc3)N3CCN(C)CC3)c(O)n2n1 (centres undefined)
recorded-number: 8.75

compound: COc1cccc(C2CC(c3ccccc3OC)n3nc(N)nc3N2)c1 (centres undefined)
recorded-number: 6.87

compound: COc1ccccc1NC=C1C(=O)OC(C)(C)OC1=O
recorded-number: -7.71

compound: COc1ccccc1CNC(=O)c1ccc(CNc2c(N3CCCC3)c(=O)c2=O)cc1
recorded-number: -2.78

compound: COc1cccc(NC(=O)c2nnn(CCc3ccccc3)c2N)c1
recorded-number: 0.3

compound: COCCCNC(=O)c1c(F)c(F)c(F)c(F)c1F
recorded-number: -2.95

compound: CCN1CCN(c2ncnc3c2sc(=S)n3-c2ccccc2)CC1
recorded-number: 11.5

compound: Cc1nc2ccccc2c2oc(C(=O)NCc3ccc4c(c3)OCO4)cc12
recorded-number: -8.97

compound: CCc1cc2c(=O)n(N)c(CCC(=O)O)nc2s1
recorded-number: -3.94

compound: Cc1cc(C)c2c(n1)SCC(=O)N2CC(=O)NCCC1=CCCCC1
recorded-number: 4.58

compound: CCOC(=O)c1[nH]c(C)c(C(=O)NC(C)CC)c1C (centres undefined)
recorded-number: -0.41

compound: C=CC(C)Sc1nc2c(c(=O)n(C)c(=O)n2C)n1Cc1ccccc1Cl (centres undefined)
recorded-number: -2.02

compound: CCC1CCCCN1Cc1nc2c(c(=O)n(C)c(=O)n2C)n1Cc1ccccc1 (centres undefined)
recorded-number: -0.26

compound: COC(=O)Cn1c(CCC(=O)O)ccc1-c1ccccc1
recorded-number: -4.95

compound: O=C(CN1CCOc2ccccc21)NC1CCN(Cc2ccccc2)CC1
recorded-number: -4.21

compound: CCOC(=O)C1=C(C)NC(=O)NC1c1ccco1 (centres undefined)
recorded-number: -9.79

compound: CCCOc1ccc(N2C(=O)CC(N3CCN(c4ccccc4F)CC3)C2=O)cc1 (centres undefined)
recorded-number: -3.87

compound: O=C(Nc1ccon1)c1cccc(C(F)(F)F)c1
recorded-number: -5.36

compound: Cc1c2cn[nH]c(=O)c2c(C)n1Cc1ccc(F)cc1
recorded-number: -15

compound: COc1cccc(CN2C(=O)CCC2(C)C(=O)NC2CCCCC2)c1 (centres undefined)
recorded-number: 1.03

compound: CCOc1ccc(-c2cc(NC(=O)Cn3ncc4c3-c3ccccc3OC4)on2)cc1OCC
recorded-number: -3.25

compound: COc1ccc(-c2nc(-c3ccc(Br)o3)no2)cc1OC
recorded-number: -17.9

compound: COc1ccc(C)cc1S(=O)(=O)NC1CCCCC1
recorded-number: -4.09

compound: C=CCn1c(C(C)NC(=O)CCC)nc2ccccc21 (centres undefined)
recorded-number: 7.8

###

experiment: growth suppression of beta-catenin knockout HCT116, pilot screen, human colon tumor cells (AID 823); settings: CellTiter-Glo, 60 h, at 10 µM, hits give low values;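 note: 0% = wells killed by 20 µM Hyamine and 100% = untreated DMSO cell wells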
Results filed as inconclusive are left out.
Threshold check on viability: strictly below 90% is fulfilled; on or above 90% is not fulfilled.

compound: CN1CCN(CCCNC(=O)c2ccc3c(c2)N(Cc2ccccc2)CCS3)CC1
assigned-label: fulfilled

compound: COc1ccc(CC2CCOC2=O)cc1 (stereo unspecified)
assigned-label: not fulfilled

compound: O=C(Sc1nnc(-c2ccccc2)o1)N1c2ccccc2Sc2ccccc21
assigned-label: fulfilled

compound: CC(=O)NCc1nc2ccccc2n1Cc1ccccc1F
assigned-label: not fulfilled

compound: COC(=O)C1=C(C)N(C)C(=O)NC1c1ccc(O)c(OC)c1 (stereo unspecified)
assigned-label: not fulfilled

compound: CCN1CCN(C(CNS(=O)(=O)c2ccc(OC)cc2)c2cccnc2)CC1 (stereo unspecified)
assigned-label: not fulfilled

compound: Cc1ccc(C(c2sc3ncnn3c2O)N2CCC(C)CC2)cc1 (stereo unspecified)
assigned-label: not fulfilled

compound: COc1ccc(-c2nn(-c3ccccc3)cc2C(=O)O)cc1
assigned-label: not fulfilled

###

experiment: RAM signaling pathway blockade in yeast – S. cerevisiae, Pdr1DBD-CYC8 efflux-inhibited sensitized strain, primary screen (AID 1298);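 note: 0% = DMSO untreated cells without growth and 100% = 10 µM 1-NA-PP1 full growth; higher means more yeast growth rescued from 5-FOA killing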; settings: S. cerevisiae cbk1-as DSE1-URA3 strain, 5-FOA growth OD615, 2 d; at 50 µM; hits give high values
Catalogue of compounds with associated RAM network inhibition
observation-type: RAM network inhibition (%)

compound: O=C(Cc1ccccc1)NCCn1ccc2ccccc21
recorded-number: 3.55
//
compound: COc1ccc(-n2ncc3c(N4CCCCC4)ncnc32)cc1
recorded-number: -1.99
//
compound: CC(C)N(Cc1nc(-c2ccccc2)no1)C(=O)c1ccc(Cl)cc1
recorded-number: 6.42
//
compound: O=C1CCCN1CC(CN1CCOCC1)Sc1nnnn1-c1ccccc1 (stereo not drawn)
recorded-number: 5.8
//
compound: CCOC(=O)c1c(NC(=O)c2cccs2)sc2c1CCCC2
recorded-number: 8
//
compound: O=C(Nc1nccs1)C12CC3CC(C1)CC(C(=O)Nc1nccs1)(C3)C2
recorded-number: 2.5
//
compound: COc1ccc(-c2c(C)oc3c(CN4CCCCC4C)c(O)ccc3c2=O)cc1OC (stereo not drawn)
recorded-number: 4.01
//
compound: Cn1c(=O)c2c(SCC(=O)N3CCC(Cc4ccccc4)CC3)nc(C3CC3)nc2n(C)c1=O
recorded-number: 0.47
//
compound: Cc1ccc(C)c(C(=O)N(Cc2nc(-c3ccc(Cl)cc3)no2)C(C)C)c1
recorded-number: 4.04
//
compound: Cc1cc(NC(=O)COC(=O)c2ccc(F)c(S(=O)(=O)N3CCOCC3)c2)no1
recorded-number: 3.16
//
compound: CCSc1nnc(NC(=O)CSc2nc3c(c(=O)n2-c2ccccc2)SCC3)s1
recorded-number: 4.35
//
compound: O=C(CCc1nc2ccccc2[nH]1)N1CCc2ccccc2C1
recorded-number: 1.76
//
compound: CC(=O)Nc1c(-c2ccccc2)nc2ncccn12
recorded-number: 0.97
//
compound: CC(C)C(NS(=O)(=O)c1ccc2c(c1)oc(=O)n2C)C(=O)N1CCN(C2CCCCC2)CC1 (stereo not drawn)
recorded-number: 6.54
//
compound: CC(C)Cc1nnc(NC(=O)CCN2C(=O)c3ccccc3C2=O)s1
recorded-number: 9.47
//
compound: O=C(Cn1nc(-c2ccc(Cl)cc2)ccc1=O)NCCN1CCOCC1
recorded-number: 7.69
//
compound: COc1ccccc1Nc1cc(C(=O)NCCCN2CCOCC2)c2ccccc2n1
recorded-number: 0.58
//
compound: COc1ccc(-n2c(SCC(=O)Nc3cc(C)on3)nc3c(c2=O)SCC3)cc1
recorded-number: 6.81
//
compound: COc1ccc(/C(N)=C/C(=O)C(C)(C)C)cc1
recorded-number: 4.84
//
compound: Cc1ccc2cc(CCNC(=O)C3CCCC3)c(=O)[nH]c2c1
recorded-number: 4.58
//
compound: O=C(COC(=O)c1cnccn1)c1ccc(Br)cc1
recorded-number: 2.72
//
compound: COc1ccccc1NC(=O)C1=C(C)NC(=O)NC1c1ccccc1F (stereo not drawn)
recorded-number: 2.41
//
compound: Cn1c(=O)[nH]c(=O)c2c1nc(SCCN1CCOCC1)n2CCCc1ccccc1
recorded-number: 4.46

###

assay: Restrictive medium S. cerevisiae growth inhibition, OD615, pilot screen of yeast lifespan reduction project, restrictive growth control (AID 706); settings: OD615, 48 h, at 10 µM, hits give high values;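 note: modified DeaD lifespan yeast strain shifted to restrictive glucose medium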
Condition met means recorded growth inhibition is -10% or above; Condition not met means it is below -10%.

compound: COc1cccc(N2CCN(C(=O)C3CCCN(S(=O)(=O)c4cnc[nH]4)C3)CC2)c1 (stereo unspecified)
assigned-label: Condition met
//
compound: COC(=O)CSC1=C(C#N)C(c2cccc(OC)c2)CC(=O)N1 (stereo unspecified)
assigned-label: Condition met
//
compound: Cc1cc2ccccc2n1CCNC(=O)C(C)C
assigned-label: Condition met
//
compound: COc1ccccc1NC(=O)CSc1nnc(-c2ccccc2)o1
assigned-label: Condition not met
//
compound: COc1ccccc1CC1(C)NC(=O)N(CC(=O)N2CC(C)OC(C)C2)C1=O (stereo unspecified)
assigned-label: Condition not met
//
compound: Cc1cccc(OCc2nnc(SCC(=O)NCCc3ccccc3)o2)c1
assigned-label: Condition not met
//
compound: Cn1c(C(=O)NCCN2CCc3ccccc3C2)cc2c(=O)n(C)c3ccccc3c21
assigned-label: Condition met
//
compound: COc1ccc(S(=O)(=O)Cc2ccc(C(=O)NCc3cccs3)o2)cc1
assigned-label: Condition not met
//
compound: CC(=O)NCCc1cc2ccc(C)c(C)c2[nH]c1=O
assigned-label: Condition not met
//
compound: Nc1nc(-c2ccc3c(c2)CCCC3)cs1
assigned-label: Condition met
//
compound: CC1(C)Nc2ccccc2N(CCC(=O)N2CCOCC2)C1=O
assigned-label: Condition met

###

test: OD615 S. cerevisiae growth inhibition, permissive medium, pilot counter-assay, permissive growth control for S. cerevisiae lifespan shortening project (AID 705); settings: OD615, 24 h, at 10 µM, hits give high values
Below, each of the molecules is paired with its reported growth inhibition value.

molecule: CCOC(=O)N1CCN(c2c(N3CCOCC3)c(=O)c2=O)CC1
scale-unit: %
growth inhibition: 1.49
//
molecule: Cc1cnc(C(=O)OCC(=O)Nc2ccc(Cl)cc2)cn1
scale-unit: %
growth inhibition: -19
//
molecule: Cc1ccccc1C(=O)NCCN=C1NS(=O)(=O)c2ccccc21
scale-unit: %
growth inhibition: -7.76
//
molecule: Cc1ccc(C)c(NC(=O)CSc2nnc(-c3ccccc3)n2N)c1
scale-unit: %
growth inhibition: -4.36
//
molecule: COc1ccc(CN2CCCCC2c2cccnc2)c(OC)c1C (stereo unspecified)
scale-unit: %
growth inhibition: -1.37
//
molecule: CCCCOc1ccc(C2(C)CC(=O)NC2=O)cc1 (stereo unspecified)
scale-unit: %
growth inhibition: 19.7
//
molecule: O=C(c1cc(-c2ccccc2O)on1)N1CCCC1
scale-unit: %
growth inhibition: -4.15
//
molecule: CCOC(=O)c1ccc(N2C(=O)C3ON(c4ccccc4)C(c4ccco4)C3C2=O)cc1 (stereo unspecified)
scale-unit: %
growth inhibition: -17.9
//
molecule: CCOc1ccc(-n2c(SC(C)C(=O)OC)nc3c(c2=O)SCC3)cc1 (stereo unspecified)
scale-unit: %
growth inhibition: -6.67
//
molecule: Cc1cc(C2N=C(N)Nc3nc4ccccc4n32)c(C)n1-c1ccccc1Cl (stereo unspecified)
scale-unit: %
growth inhibition: -0.255
//
molecule: O=C(O)c1c2c(nc3ccc(S(=O)(=O)N4CCC(C(=O)N5CCCCC5)CC4)cc13)CCCC2
scale-unit: %
growth inhibition: -3.06
